Please go through the items and note down their inhibition at 0.1 µM.
Molecular target: SRC (Homo sapiens, UniProt P12931)
Construct: purchased Invitrogen
Sequence (P12931 whole entry): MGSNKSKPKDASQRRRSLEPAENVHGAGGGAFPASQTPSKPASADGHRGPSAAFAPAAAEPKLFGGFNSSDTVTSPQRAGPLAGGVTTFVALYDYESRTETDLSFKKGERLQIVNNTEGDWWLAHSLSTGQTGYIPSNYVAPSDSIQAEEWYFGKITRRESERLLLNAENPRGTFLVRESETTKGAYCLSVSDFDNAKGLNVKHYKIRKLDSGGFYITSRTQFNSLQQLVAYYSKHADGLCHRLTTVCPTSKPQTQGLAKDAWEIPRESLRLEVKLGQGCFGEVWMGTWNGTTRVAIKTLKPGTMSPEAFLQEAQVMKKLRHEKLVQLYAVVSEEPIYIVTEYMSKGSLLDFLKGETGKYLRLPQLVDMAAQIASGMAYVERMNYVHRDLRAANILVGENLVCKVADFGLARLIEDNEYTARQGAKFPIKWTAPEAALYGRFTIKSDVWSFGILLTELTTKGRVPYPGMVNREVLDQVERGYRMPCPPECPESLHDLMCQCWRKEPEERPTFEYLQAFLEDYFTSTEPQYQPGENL
Test: In vitro kinase assay (Z'-LYTE, Invitrogen)
Type: biochemical
Settings: compound at 100 nM, ATP Km apparent, read-out: % of inhibition of the kinase compared to the control

Some compounds with recorded inhibition at 0.1 µM:
Compound: COC(=O)c1cc2cc(CCc3cccc(NC(=S)Cc4cccc(C(F)(F)F)c4)c3)cnc2[nH]1
inhibition at 0.1 µM: < 50%
//
Compound: CC(=O)c1cc2cc(CCc3cc(NC(=O)c4cncc(C(F)(F)F)c4)ccc3C)cnc2[nH]1
inhibition at 0.1 µM: ≥ 50%
//
Compound: COC(=O)c1cc2cc(COc3cc(NC(=O)c4ccc(CN5CCN(C)CC5)c(C(F)(F)F)c4)ccc3C)cnc2[nH]1
inhibition at 0.1 µM: ≥ 50%

For every item below, please supply its inhibition at 0.1 µM.
1. CC(=O)c1cc2cc(CCc3cc(NC(=O)Cc4cccc(C(F)(F)F)c4)ccc3C)cnc2[nH]1
2. COC(=O)c1cc2cc(CCc3cc(NC(=O)c4ccc(CN5CCN(C)CC5)cc4)ccc3C)cnc2[nH]1
3. CC(=O)c1cc2cc(C(=O)Nc3cc(NC(=O)c4ccc(CN5CCN(C)CC5)c(C(F)(F)F)c4)ccc3C)cnc2[nH]1
4. COC(=O)c1cc2cc(COc3cc(NC(=O)c4ccc(CN5CCC(N(C)C)C5)c(C(F)(F)F)c4)ccc3C)cnc2[nH]1 (stereo not shown)
5. CC(=O)c1cc2cc(CCc3cc(NC(=O)Nc4cccc(C(F)(F)F)c4)ccc3C)cnc2[nH]1
6. COC(=O)c1cc2cc(CCc3cc(NC(=O)c4ccccc4OC)ccc3Cl)cnc2[nH]1
7. COC(=O)c1cc2cc(CCc3cc(NC(=O)c4ccc(CN5CCC(N(C)C)C5)c(C(F)(F)F)c4)ccc3C)cnc2[nH]1 (stereo not shown)
8. COC(=O)c1cc2cc(CNC(=O)c3cc(NC(=O)c4ccc(CN5CCC(N(C)C)C5)c(C(F)(F)F)c4)ccc3C)cnc2[nH]1 (stereo not shown)

[A]
< 50%
≥ 50%
< 50%
≥ 50%
< 50%
< 50%
≥ 50%
< 50%

Could I get inhibition at 0.1 µM for every one of these entries?
1. COC(=O)c1cc2cc(CNc3cc(NC(=O)c4ccc(CN5CCN(C)CC5)c(C(F)(F)F)c4)ccc3C)cnc2[nH]1
2. COC(=O)c1cc2cc(CCc3cccc(NC(=O)c4ccc5[nH]nnc5c4)c3)cnc2[nH]1
3. COC(=O)c1cc2cc(C=Nc3cc(NC(=O)c4ccc(CN5CCN(C)CC5)c(C(F)(F)F)c4)ccc3C)cnc2[nH]1
4. COC(=O)c1cc2cc(CCc3cc(NC(=O)c4ccc(CN5CCN(C)CC5)c(C(F)(F)F)c4)ccc3C)cnc2[nH]1
5. CC(=O)c1cc2cc(CCc3cc(NC(=O)c4ccc(CN5CCN(C)CC5)cc4)ccc3C)cnc2[nH]1
6. COC(=O)c1cc2cc(C=Cc3cc(NC(=O)c4ccc(CN5CCN(C)CC5)c(C(F)(F)F)c4)ccc3C)cnc2[nH]1
7. COC(=O)c1cc2cc(CSc3cccc(NC(=O)c4cccc(C(F)(F)F)c4)c3)cnc2[nH]1
8. CC(=O)c1cc2cc(CCc3cc(NC(=O)c4ccc(CN5CC[C@H](N(C)C)C5)c(C(F)(F)F)c4)ccc3C)cnc2[nH]1

[A]
["≥ 50%", "< 50%", "≥ 50%", "≥ 50%", "≥ 50%", "≥ 50%", "< 50%", "≥ 50%"]

Return reported inhibition at 0.1 µM values for all items listed beneath this line.
1. CC(=O)c1cc2cc(CCc3cc(NC(=O)c4cc(N5CCN(C)CC5)cc(C(F)(F)F)c4)ccc3C)cnc2[nH]1
2. COC(=O)c1cc2cc(C=Cc3cc(NC(=O)c4ccc(CN5CCN(C)CC5)cc4)ccc3C)cnc2[nH]1
3. COC(=O)c1cc2cc(CCc3cccc(NC(=O)c4cc[nH]c4)c3)cnc2[nH]1

[A]
≥ 50%
< 50%
< 50%

The following compounds each have a reported value; give each one's inhibition at 0.1 µM.
1. CC(=O)c1cc2cc(CCc3cc(NC(=O)c4ccc(CN5CCN(C)CC5)c(C(F)(F)F)c4)ccc3C)cnc2[nH]1
2. COC(=O)c1cc2cc(CNc3cc(NC(=O)c4ccc(C)cc4)ccc3C)cnc2[nH]1
3. COC(=O)c1cc2cc(CCc3cc(NC(=O)Nc4cccc(C(F)(F)F)c4)ccc3C)cnc2[nH]1

[A]
≥ 50%
< 50%
< 50%

The reported measurements were obtained from patent US9550772B2.
